Listing: relative cell viability of selected molecules
tested on: MDA-MB-231; assay: relative cell viability, compound alone, vs DMSO (fraction of DMSO control); higher = less growth inhibition; conditions: 72 h;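 note: viability read out with the CCK-8 kit in 96-well plates, screening a set of 303 compounds acting on lipid metabolism targets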
endpoint name: relative cell viability

In [3]: df
Out[3]:
                           structure_string            endpoint_name  assay_value
0  COc1cccc(-n2c(=O)[nH]c3cc(Cl)n(-c4ccc(-c5cccc(OC)c5O)cc4)c3c2=O)c1  relative cell viability        0.903
1  COc1cc(N2CCN(C)CC2)ccc1Nc1ncc2c(n1)N(C1CCC1)C(=O)N(c1c(C)cccc1C)C2  relative cell viability        0.767
2  Cc1nc(Nc2cnn(C3CCNCC3)c2)nc2c1N(C)C(=O)c1cc3ccccc3cc1N2C  relative cell viability         0.49
